assayed_target: Runt-related transcription factor 1 (Homo sapiens) + Core-binding factor subunit beta (Homo sapiens) (UniProt Q01196+Q13951)
Sequence (Q01196 whole entry, looked up, the tested form may be a part): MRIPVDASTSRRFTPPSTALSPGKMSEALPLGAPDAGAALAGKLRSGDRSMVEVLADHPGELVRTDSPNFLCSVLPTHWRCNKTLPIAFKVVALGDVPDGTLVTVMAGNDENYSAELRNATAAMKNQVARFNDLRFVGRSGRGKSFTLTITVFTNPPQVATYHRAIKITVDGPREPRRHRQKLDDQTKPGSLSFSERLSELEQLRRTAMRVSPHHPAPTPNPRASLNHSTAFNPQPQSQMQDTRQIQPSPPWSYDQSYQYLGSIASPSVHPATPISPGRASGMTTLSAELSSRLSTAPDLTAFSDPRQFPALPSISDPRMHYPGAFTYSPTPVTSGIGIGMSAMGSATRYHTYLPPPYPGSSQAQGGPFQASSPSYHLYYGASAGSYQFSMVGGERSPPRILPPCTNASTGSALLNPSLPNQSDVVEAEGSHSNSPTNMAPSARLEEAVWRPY
Sequence (Q13951 whole entry, looked up, the tested form may be a part): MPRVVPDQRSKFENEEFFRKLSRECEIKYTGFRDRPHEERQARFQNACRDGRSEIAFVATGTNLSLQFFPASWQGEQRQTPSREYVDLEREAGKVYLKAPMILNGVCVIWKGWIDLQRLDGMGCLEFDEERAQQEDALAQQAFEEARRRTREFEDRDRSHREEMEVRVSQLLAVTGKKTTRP
experiment: disruptors of Runt domain/CBFb-SMMHC interaction – biochemical, FRET, Cerulean-Runt, Venus-CBFb-SMMHC, uHTS, primary screen (AID 1434);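 also: 0% = DMSO wells and 100% = wells with excess untagged CBFb-SMMHC; inhibitors lower the FRET ratio by blocking Runt binding to CBFb-SMMHC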
experimental_setup: Cerulean-Runt/Venus-CBFb-SMMHC FRET ratio 530/480, 1 h; retest duplicate average; at 20 µM; stronger effect = higher value
Hit rate of the full screen: of about 220,000 compounds, about 1,600 (0.73%) were called active. The full list was thinned out, with actives kept by preference.
quantity_name: inhibition

Please review the following examples before continuing.
CC1CC(C)CN(S(=O)(=O)c2cccc(C(=O)N3C(=O)c4cccc(N)c4C3=O)c2)C1 (configuration not stated)
72.9%
CCN(CC)c1nc(-c2ccccc2)cc(C(F)(F)F)c1C#N
57.3%
COc1ccc(CCNC2=C(Cl)C(=O)N(Cc3ccccc3)C2=O)cc1OC
70.6%
CC(=O)Nc1cc2ccc(OC(C)=O)cc2oc1=O
119%
Cc1cc(C)c2c3c(sc2n1)C(c1ccccc1)C(C#N)=C(N)O3 (configuration not stated)
141%

Please report inhibition for every entry that follows.
1. COc1cccc(C(=O)c2cc3ccc(O)cc3oc2=O)c1
2. CN1C(=O)/C(=C/C=C2\SCCN2C)OC1=S
3. CSc1c(SCc2ccccc2)cnn(Cc2ccccc2)c1=O
4. CCCN1CC=C2C(C#N)=C(N)C(C#N)(C#N)C(c3cc(OC)ccc3OC)C2C1 (configuration not stated)
5. Oc1ccc(Br)cc1C=Nc1ccc2[nH]ncc2c1
6. NC(=O)c1c(Nc2nc3c(F)cccc3s2)sc2c1CCCC2
7. CC(C)(C)c1ccc(C(=O)NCCn2c(N)c(C#N)c3nc4ccccc4nc32)cc1

# output
["194%", "79.9%", "54.5%", "77.5%", "86.7%", "175%", "128%"]

Please report inhibition for every entry that follows.
1. CCC(C)(C)n1nnnc1CN1CCN(c2nc3ccc(C)cc3cc2C#N)CC1
2. COc1ccc(-c2cc(-c3ccc(N)cc3)nc(N)c2C#N)cc1OC
3. CSc1sc(C)cc1C1C(C#N)=C(N)N(c2cccnc2)C2=C1C(=O)CCC2 (configuration not stated)
4. O=c1cc(CN2CCN(S(=O)(=O)/C=C/c3ccccc3)CC2)c2ccc(O)cc2o1
5. N#Cc1c(N)n(CCOC(=O)c2ccc(Cl)cc2)c2nc3ccccc3nc12
6. CCCCN(CCCC)CC(O)Cn1c2ccccc2c(=O)c2ccccc21 (configuration not stated)
7. COc1ccc(C2CC(c3cccs3)=NN2c2ccccc2)cc1 (configuration not stated)
8. Cc1ccc(-n2c(=O)c(C#N)cc3c(=O)n4ccccc4nc32)cc1C

# output
["79.1%", "46.8%", "73.7%", "146%", "152%", "70.6%", "53.7%", "72.9%"]

Please report inhibition for every entry that follows.
1. Cc1nc2c(c(=O)n1Cc1ccco1)c1nc3ccccc3nc1n2Cc1ccccc1
2. COCCCNC(=S)NCCNc1nc2cc(C)c(C)cc2cc1C#N

# output
1. 50.7%
2. 125%

* * *

assayed_target: Runt-related transcription factor 1 (Homo sapiens) + Core-binding factor subunit beta (Homo sapiens) (UniProt Q01196+Q13951)
experiment: disruptors of Runt domain/CBFb-SMMHC interaction – biochemical, FRET, Cerulean-Runt, Venus-CBFb-SMMHC, uHTS, primary screen (AID 1434);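 also: 0% = DMSO wells and 100% = wells with excess untagged CBFb-SMMHC; inhibitors lower the FRET ratio by blocking Runt binding to CBFb-SMMHC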
experimental_setup: Cerulean-Runt/Venus-CBFb-SMMHC FRET ratio 530/480, 1 h; at 20 µM; stronger effect = higher value
The whole screen tested about 220,000 compounds, of which about 1,600 (0.73%) were called active. The entries come from a sample that favours actives as a whole.
quantity_name: inhibition

Please report inhibition for every entry that follows.
1. COc1ccc(Cc2nnc(NC(=O)c3cc(OC)c(OC)c(OC)c3)s2)cc1OC
2. Cc1cc2oc(=O)cc(CN3CCN(S(=O)(=O)c4cccs4)CC3)c2cc1C(C)C
3. COc1cccc(NC(=O)CN(C)C(=O)/C=C/c2cc(OC)ccc2OC)c1
4. NC(=O)C1(C(N)=O)OC1c1ccc(Cl)cc1Cl (stereo not given)

# output
-2% (inactive)
-6.5% (inactive)
-3.2% (inactive)
1% (inactive)
